target: anti-TNFα antibody-Fab (IgG-Fab derived from anti-TNFα monoclonal antibody, adalimumab) (Homo sapiens, UniProt P01834+P01857); construct: cleaving a humanized monoclonal IgG formulation as a starting material into a Fab fragment and an Fc fragment by papain; purchased; test: Biacore 3000 surface plasmon resonance, affinity of SpG-β1 mutants for immobilized IgG-Fab; format: binding; settings: Table 3, Example 4; GST-cleaved type (Pep-), constructs Pep.1d, Pep.1dC, Pep.2dC
Examples of substances with documented kon follow.
Report the value in s/M with no unit label.

// solved cases for kon follow
{"columns": ["substance", "unit_of_measure", "recorded_result"],
 "data": [
  ["Pep.2dC K13T/T18A/E19I/V21A/K28I/F30L/Y33F/V39I (TTYKLILNGKTLTGETTAIAADAATAEIVLKQFANDNGIDGEWTYDDATKTFTVTE)", "s/M", 63900],
  ["Pep.1d K13T/T18A/E19I/V21A/K28I/F30L/Y33F/V39I: SpG-β1 mutant, SEQ ID NO: 85, GST-cleaved one domain type (TTYKLILNGKTLTGETTAIAADAATAEIVLKQFANDNGIDGEWTYDDATKTFTVTE; SpG mutant)", "s/M", 111000],
  ["Pep.1d K10R/K13T/T18A/E19I/V21D/T25M/F30L/Y33F/N35F/D47A: SpG-β1 mutant, SEQ ID NO: 87, GST-cleaved one domain type (TTYKLILNGRTLTGETTAIADDAAMAEKVLKQFAFDNGVDGEWTYDAATKTFTVTE; SpG mutant)", "s/M", 138000]
]}

Reported kon for Pep.1dC K13T/T18A/E19I/V21A/K28I/F30L/Y33F/V39I: SpG-β1 mutant, SEQ ID NO: 85, GST-cleaved one domain type with Cys at the C-terminus (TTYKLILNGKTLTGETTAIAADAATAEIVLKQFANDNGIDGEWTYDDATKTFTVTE; C-terminal Cys; SpG mutant) was 88300

// sample Pep.1dC K10R/K13T/T18A/E19I/V21D/T25M/F30L/Y33F/N35F/D47A (TTYKLILNGRTLTGETTAIADDAAMAEKVLKQFAFDNGVDGEWTYDAATKTFTVTE) , its kon was 97700

---

molecular target: anti-TNFα antibody-Fab (IgG-Fab derived from anti-TNFα monoclonal antibody, adalimumab) (Homo sapiens, UniProt P01834+P01857); construct: cleaving a humanized monoclonal IgG formulation as a starting material into a Fab fragment and an Fc fragment by papain; purchased; assay: Biacore 3000 surface plasmon resonance, affinity of SpG-β1 mutants for immobilized IgG-Fab; type: binding; settings: Table 2, Example 3; fold of wild-type KA; GST-fused one-domain peptide
Where no end group is shown, it is not given here.
attribute_measured: KA Vs. Wild
// keep it numeric: no unit symbol after the value

Consider the worked cases shown below.
{"columns": ["substance", "KA Vs. Wild"],
 "data": [
  ["K13T/E19I/E27D/F30L/K31R: GST-fused one-domain SpG-β1 mutant, amino acid SEQ ID NO: 35 (TTYKLILNGKTLTGETTTIAVDAATADKVLRQYANDNGVDGEWTYDDATKTFTVTE; also: GST-fused)", 7.3],
  ["K13T/E19I/Y33F/N35Y/V39L: GST-fused one-domain SpG-β1 mutant, amino acid SEQ ID NO: 41 (TTYKLILNGKTLTGETTTIAVDAATAEKVFKQFAYDNGLDGEWTYDDATKTFTVTE; also: GST-fused)", 5.0],
  ["K13T/E15Q/E19V/F30L/V39L: GST-fused one-domain SpG-β1 mutant, amino acid SEQ ID NO: 61 (TTYKLILNGKTLTGQTTTVAVDAATAEKVLKQYANDNGLDGEWTYDDATKTFTVTE; also: GST-fused)", 3.8],
  ["K13T/E15T/E19I/T25M/E27G/F30L/N35Y: GST-fused one-domain SpG-β1 mutant, amino acid SEQ ID NO: 63 (TTYKLILNGKTLTGTTTTIAVDAAMAGKVLKQYAYDNGVDGEWTYDDATKTFTVTE; also: GST-fused)", 3.4],
  ["K13T/D22N/A23T/T25S/F30L/A48T: GST-fused one-domain SpG-β1 mutant, amino acid SEQ ID NO: 73 (TTYKLILNGKTLTGETTTEAVNTASAEKVLKQYANDNGVDGEWTYDDTTKTFTVTE; also: GST-fused)", 2.8]
]}

Documented KA Vs. Wild of K13T/E19I/K28I/F30L/N35F: GST-fused one-domain SpG-β1 mutant, amino acid SEQ ID NO: 57 (TTYKLILNGKTLTGETTTIAVDAATAEIVLKQYAFDNGVDGEWTYDDATKTFTVTE; also: GST-fused) : 3.7

According to the records, this substance K13T/E19I/K28N/F30L/D40V: GST-fused one-domain SpG-β1 mutant, amino acid SEQ ID NO: 33 (TTYKLILNGKTLTGETTTIAVDAATAENVLKQYANDNGVVGEWTYDDATKTFTVTE; also: GST-fused) displays KA Vs. Wild of 3.8

// KA Vs. Wild lookup, substance = K13T/E19I/A23D/V39L: GST-fused one-domain SpG-β1 mutant, amino acid SEQ ID NO: 31 (TTYKLILNGKTLTGETTTIAVDDATAEKVFKQYANDNGLDGEWTYDDATKTFTVTE; also: GST-fused) , result: 3.6
